All values here come from patent US11096975B2.

Assay: in vitro
Conditions: human
endpoint name: viability at 50 µM (%)
Answers are plain numbers, in %.

Query: Which viability at 50 µM reading was recorded for the compound C[C@@H]1O[C@@H](OC[C@H]2O[C@@H](Oc3c(-c4ccc(O)c(O)c4)oc4cc(O)cc(O)c4c3=O)[C@H](O)[C@@H](O)[C@@H]2O)[C@H](O)[C@H](O)[C@H]1O ?
Result: 88

* * *

Assay: in vitro
Conditions: human
endpoint name: viability at 100 µM (%)
One number for each entry, in %.

Query: Can you share its viability at 100 µM? I mean this compound: C[C@@H]1O[C@@H](OC[C@H]2O[C@@H](Oc3c(-c4ccc(O)c(O)c4)oc4cc(O)cc(O)c4c3=O)[C@H](O)[C@@H](O)[C@@H]2O)[C@H](O)[C@H](O)[C@H]1O [Rutin]
Result: 86

* * *

Assay: in vitro
Conditions: human
endpoint name: viability at 20 µM (%)
One number for each entry, in %.

Query: Look at this molecule and give its reported viability at 20 µM. C[C@@H]1O[C@@H](OC[C@H]2O[C@@H](Oc3c(-c4ccc(O)c(O)c4)oc4cc(O)cc(O)c4c3=O)[C@H](O)[C@@H](O)[C@@H]2O)[C@H](O)[C@H](O)[C@H]1O [Rutin]
Result: 92
